systemUnderTest: Mitogen-activated protein kinase 14 (Homo sapiens)
Sequence (Q16539 whole entry): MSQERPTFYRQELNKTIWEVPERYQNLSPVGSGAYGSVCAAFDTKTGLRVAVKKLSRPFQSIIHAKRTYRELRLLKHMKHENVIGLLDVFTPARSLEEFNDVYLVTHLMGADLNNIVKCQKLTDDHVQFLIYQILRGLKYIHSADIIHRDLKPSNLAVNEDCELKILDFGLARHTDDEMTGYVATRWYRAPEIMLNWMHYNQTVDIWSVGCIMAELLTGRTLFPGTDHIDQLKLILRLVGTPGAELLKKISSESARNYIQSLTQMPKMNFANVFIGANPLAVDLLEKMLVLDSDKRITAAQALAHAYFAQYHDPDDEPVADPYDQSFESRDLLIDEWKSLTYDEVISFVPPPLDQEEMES
protocolDetails: Inhibition of Mitogen-activated protein kinase p38 alpha
valueType: IC50 (nM)

* COc1cc2[nH]ccc2cc1C(=O)N1C[C@H](C)N(Cc2ccccc2)C[C@H]1C | 20
* COc1cc2[nH]ccc2cc1C(=O)N1CCN(Cc2ccccc2)CC1 | 950
* COc1cc2[nH]ccc2cc1C(=O)N1C[C@@H](C)N(Cc2ccccc2)C[C@@H]1C | 1650

(P) C[C@@H]1CN(Cc2ccccc2)[C@@H](C)CN1C(=O)c1ccc2[nH]ccc2c1
(Q) COc1cc2[nH]ccc2cc1C(=O)N1C[C@H](C)N(Cc2ccccc2)C[C@H]1C (racemic)
Task: Hi there! Just curious which has the higher IC50 between P and Q . # reply format: chosen label
Result: P
